System: PfHDP1 homeodomain (GST-tagged)
Assay: gcPBM binding intensity (ln(normalized median fluorescence intensity)); higher = stronger DNA binding
Over roughly 25,000 sequences, “ln(normalized median fluorescence intensity)” has its median near 6.7; the highest 2% begin near 10. The full list was thinned out, with the highest values kept by preference.
OUTCOME_MEASURE: gcPBM binding intensity (ln)
Reply with just the number.

Task item: Looking for the measured gcPBM binding intensity (ln) of CAAAATGATATGACAACACACAACCTATAGTAAGAC [CACACA_site1287] , can you help?
Reply: 6.91

Task item: Repeat with ATATATATATATAGTGCACACTTAAGAATATAAAGA [CACACA_site4771]
Reply: 10.3

Task item: Repeat with CTTTTTTTTTTTTTTGCACACACATATATAAATATA [CACACA_site3950]
Reply: 10.6

Task item: Repeat with ATAAAAATTTATATATGTACTTAATTTTTAATTTTT [XGTACX_site7482]
Reply: 5.98

Task item: Repeat with TATATATATATATATACACACATATACATATTGTTT [CACACA_site3499]
Reply: 9.37

Task item: Repeat with AAATAAAGAATATAAATACACACTTAAATATATATT [CACACA_site4007]
Reply: 6.44

Task item: Repeat with CATGCTTATATGTGCACACACAAAAGAAAAGAAAAA [CACACA_site1655]
Reply: 11

Task item: Repeat with AATATAAATAAACACACACACATATATATATATATT [CACACA_site2906]
Reply: 6.78

Task item: Repeat with TTTTCAATATATATTTGTACTTTATTTTATGATATT [GTGCAC_negctrl_site732]
Reply: 6.71

Task item: Repeat with AATAAAAAAAAATGCACACATATATATATATATATA [CACACA_site2421]
Reply: 9.87

---

System: PfHDP1 homeodomain (GST-tagged)
Assay: gcPBM binding intensity (ln(normalized median fluorescence intensity)); higher = stronger DNA binding
Whole data set: some 25,000 sequences, median “ln(normalized median fluorescence intensity)” near 6.7, cut for the highest 2% near 10. The sample as a whole holds a higher share of the highest values than the screen did.
# maps each entry to its gcPBM binding intensity (ln)

Reference set (4 entries):
>  <SEQUENCE_ENTRY>
TTTATCAAAATAAATGCACACAAATTGCACATATCT [CACACA_site8281]

>  <gcPBM binding intensity (ln)>
10.9

$$$$
>  <SEQUENCE_ENTRY>
AAAGAATACAAAATTGCACACATATTGTGAAAATGT [CACACA_site9327]

>  <gcPBM binding intensity (ln)>
9.59

$$$$
>  <SEQUENCE_ENTRY>
AAAATACATAAACACACACACACACCGATATATATA [CACACA_site9186]

>  <gcPBM binding intensity (ln)>
7.14

$$$$
>  <SEQUENCE_ENTRY>
GAAAAATATATTCTGGTGCATGAATAAAATCATAAA

>  <gcPBM binding intensity (ln)>
9.33

$$$$

Task item: Param readout = gcPBM binding intensity (ln); param system = PfHDP1 homeodomain (GST-tagged); param query = AAAAAAGAATTGTGCACACACAAAAAATGTTCATAA [CACACA_site1103] ; response: value
Reply: 10.3

Task item: Repeat with CATATAAAAATGTGCACACACACACCGATATATATT [CACACA_site4940]
Reply: 10.8

Task item: Repeat with ACTATATATATAAGTGCATGTTCATTATACCTAAAG [TGCATGCA_site696]
Reply: 7.49

Task item: Repeat with CCATATCTTTTTTGCACACACTACAATAAAACAAAA [CACACA_site4995]
Reply: 10.6

Task item: Repeat with TACAACAATTTTTGCACACACCAAAACATAAAATAA [CACACA_site4964]
Reply: 10.3

Task item: Repeat with AAAAAATTATACCTTTGTACATAAATAAAATATTAT [XGTACX_site418]
Reply: 6.23
